Target: T1, extracellular domain of the human leptin receptor (human, UniProt P48357 22-839)
T1 construct: extracellular domain; It is treated as one construct; a tag is not mentioned for the ELISA and cross-linking experiments; also called hECD; recombinant leptin receptor extracellular domain
T1 sequence (looked up): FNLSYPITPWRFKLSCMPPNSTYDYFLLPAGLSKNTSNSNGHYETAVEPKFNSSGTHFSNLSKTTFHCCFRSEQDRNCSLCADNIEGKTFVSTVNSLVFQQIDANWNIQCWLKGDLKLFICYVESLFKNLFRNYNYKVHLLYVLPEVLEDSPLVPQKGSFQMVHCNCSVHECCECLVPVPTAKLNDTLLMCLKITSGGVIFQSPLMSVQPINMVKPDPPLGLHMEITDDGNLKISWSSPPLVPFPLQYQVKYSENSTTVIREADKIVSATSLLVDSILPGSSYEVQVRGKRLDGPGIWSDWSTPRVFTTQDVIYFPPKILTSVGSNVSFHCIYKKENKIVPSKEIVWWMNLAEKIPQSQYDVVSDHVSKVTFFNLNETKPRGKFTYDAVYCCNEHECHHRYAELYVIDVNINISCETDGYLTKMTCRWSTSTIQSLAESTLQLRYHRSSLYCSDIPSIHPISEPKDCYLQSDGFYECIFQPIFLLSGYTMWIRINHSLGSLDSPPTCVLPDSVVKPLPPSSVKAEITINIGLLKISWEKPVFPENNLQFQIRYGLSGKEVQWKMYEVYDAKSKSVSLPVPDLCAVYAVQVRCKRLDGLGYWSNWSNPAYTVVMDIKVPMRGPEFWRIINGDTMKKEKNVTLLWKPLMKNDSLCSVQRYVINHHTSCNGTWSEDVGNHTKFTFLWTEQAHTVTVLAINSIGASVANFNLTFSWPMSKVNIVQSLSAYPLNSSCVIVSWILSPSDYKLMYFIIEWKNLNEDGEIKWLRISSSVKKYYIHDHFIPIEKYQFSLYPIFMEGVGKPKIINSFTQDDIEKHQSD
Assay: SPR; leptin receptor ECD immobilized, antibody as analyte
assay metric: koff (s⁻¹)
# number only, unit s⁻¹ dropped from output

Illustrative cases are given below, each with its answer.
[[record]]
binder = "S2H5 (antibody, V domains shown, also called SC2H5) VH: QVQLLQSGGGVVQPGRSLRLSCAASGFTFSSYGMHWVRQAPGKGLEWVAVISYDGSNKYYADSVKGRFTISRDNSKNTLYLQMNSLRAEDTAVYYCASRYENYFSLWGQGTLVTVSS VL: EIVLTQSPGTLSLSPGERATLSCRASQSVSSNYLAWYQQKPGQAPRLLIYGASSRPTGIPDRFSGSGSGTDFTLTISRLEPEDFAVYYCQQYAASPLTFGGGTKLEIK"
result_number = 0.000164

[[record]]
binder = "S2H7 (antibody, V domains shown, also called SC2H7) VH: QVQLLQSGGGVVQPGRSLRLSCAASGFTFSSYGMHWVRQAPGKGLEWVAVISYDGSNKYYADSVKGRFTISRDNSKNTLYLQMNSLRAEDTAVYYCATRYENYFSTWGQGTLVTVSS VL: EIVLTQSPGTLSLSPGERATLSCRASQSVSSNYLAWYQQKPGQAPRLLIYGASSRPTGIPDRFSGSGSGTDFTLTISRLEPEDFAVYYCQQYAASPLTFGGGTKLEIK"
result_number = 0.000171


Alright, here's another binder for you.
Prompt: What value of measured koff is listed for S2H3 (antibody, V domains shown, also called SC2H3) VH: QVQLLQSGGGVVQPGRSLRLSCAASGFTFSSYGMHWVRQAPGKGLEWVAVISYDGSNKYYADSVKGRFTISRDNSKNTLYLQMNSLRAEDTAVYYCAGVRENYFTYWGQGTLVTVSS VL: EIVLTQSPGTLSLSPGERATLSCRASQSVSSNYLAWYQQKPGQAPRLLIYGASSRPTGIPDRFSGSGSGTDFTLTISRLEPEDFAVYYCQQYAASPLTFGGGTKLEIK ?
Completion: 0.0002
